Provide the reported Total Flux Femur of each item.
System: modified luciferase expression
Assay: Expression of Luc in different organs (liver, lung, spleen, femur) 6 hours after intravenous administration
Format: in vivo
Conditions: Table 20-3, mice, i.v., 0.5 mpk, femur
Just the number, please.

Recorded Total Flux Femur of CCCCCCCCCCCCN(CCO)CCN(CCCCCCCCCCCC)CCCCCC(=O)OCCCCC [Compound 20-2] , please.
1.07E+06

Recorded Total Flux Femur of CCCCCCCCCCCCN(CCO)CCN(CCCCCCCC(=O)OCCCCCCCCC)CCCCCCCC(=O)OCCCCCCCCC [Compound 20-10] , please.
3.09E+06

Recorded Total Flux Femur of CCCCC/C=C\CCCCCN(CCO)CCN(CCCCCCCCCCCC)CCCCCCCCCCCC [Compound 20-23] , please.
5.10E+05

Recorded Total Flux Femur of CCCCCCCCCCCCN(CCO)CCN(CCCCCC(=O)OCCCCC)CCCCCC(=O)OCCCCC [Compound 20-4] , please.
2.09E+04

Recorded Total Flux Femur of CCCCCCCOC(=O)CCCCCN(CCO)CCN(CCCCCC(=O)OCCCCCCC)CCCCCC(=O)OCCCCCCC [Compound 20-5] , please.
9.53E+04

Recorded Total Flux Femur of CCCCCCCCCCCCN(CCCCCCCCCCCC)CCN(CCO)CCCCCCCC(=O)OCCCCCCCCC [Compound 20-8] , please.
1.62E+06

Recorded Total Flux Femur of CCCCCCCCCCCCN(CCO)CCN(CCCCCCCCC)CCCCCCCCC [Compound 20-18] , please.
3.78E+05

Recorded Total Flux Femur of CCCCCC=CCC=CCCCCCCCCC(CCCCCCCCC=CCC=CCCCCC)OC(=O)CCCN(C)C (centres unmarked) [MC3, reference compound] , please.
2.60E+06

###

Experiment: Particle size and polydispersity index of nanoparticle compositions (Zetasizer Nano ZS)
Assay type: physicochemical
Details: Table 1b
propertyName: Size (nm)
Respond with the bare value in nm.

Recorded Size (nm) of CCCCCCCCCN(CCCCCCCCC)CCC1CCCN(C(=O)CN(CCCCCCCCC)CCN(CCCCCCCCC)CCCCCCCCC)C1 (stereo not drawn) , please.
84.3

Recorded Size (nm) of CCCCCCCCCN(CCCC(=O)OCCCCC)CCC1CCN(C(=O)CN(CCCCCCCCC)CCN(CCCCCCCCC)CCCCCCCCC)CC1 , please.
73.2

Recorded Size (nm) of CCCCCCCCCN(CCCOC(=O)CCCCC)CCC(=O)N1CCN(C(=O)CCN(CCCCCCCCC)CCN(CCCCCCCCC)CCCCCCCCC)CC1 , please.
53.6

Recorded Size (nm) of CCCCCCCCCN(CCCCCCCCC)CCN(CCCCCCCCC)CC(=O)N1CCN(C(=O)CN(CCCCCCCCC)CCCCC(=O)OCCCC)CC1 , please.
119.5

Recorded Size (nm) of CCCCCC=CCC=CCCCCCCCCC(CCCCCCCCC=CCC=CCCCCC)OC(=O)CCCN(C)C (stereo not drawn) [MC3, reference compound] , please.
74.7

Recorded Size (nm) of CCCCCCCCCN(CCCCCC(=O)OCCC)CCC1CCN(C(=O)CN(CCCCCCCCC)CCN(CCCCCCCCC)CCCCCCCCC)CC1 , please.
104.7

###

Test: pKa of nanoparticle compositions
Type: physicochemical
Conditions: Table 21-1
propertyName: pKa

Recorded pKa of CCCCC/C=C\C/C=C\CCCCCCCC1C(CCCCCCC/C=C\C/C=C\CCCCC)C1CN(C)C (stereo not shown) , please.
6.99

Recorded pKa of CCCCC/C=C\C/C=C\CCCCCCCCC1(CCCCCCCC/C=C\C/C=C\CCCCC)CC1CN(C)C (stereo not shown) , please.
6.07

Recorded pKa of CCCCC/C=C\C/C=C\CCCCCCCCC1(CCCCCCCC/C=C\C/C=C\CCCCC)CC(OC(=O)CCCN(C)C)C1 , please.
6.98

Recorded pKa of CCCCC/C=C\C/C=C\CCCCCCCCC1(CCCCCCCC/C=C\C/C=C\CCCCC)CCC(OC(=O)CCCN(C)C)C1 (stereo not shown) , please.
7.01

###

Experiment: pKa of nanoparticle compositions
Format: physicochemical
Settings: Table 17-1
Provide the reported pKa of each item.
Just the number, please.

Recorded pKa of CCCCC/C=C\C/C=C\CCCCCCCCN(CCO)CCCCCCCCC [Compound 17-3] , please.
6.69

Recorded pKa of CCCCCCCCCCCCN(CCCO)CCCCCCCCCCCC [Compound 17-12, 3-(Didodecylamino)propan-1-ol] , please.
6.83

Recorded pKa of CCCCCCCC/C=C\CCCCCCCCN(CCO)CCCCCCCC/C=C\CCCCCCCC [Compound 17-8] , please.
6.16

Recorded pKa of CCCCCCCCCCCCN(CCO)CCCCCCCCCCCC [Compound 17-11, 2-(Didodecylamino)ethan-1-ol] , please.
6.76

Recorded pKa of CCCCC/C=C\C/C=C\CCCCCCCCN(CCO)CCCCCCCCCCCC [Compound 17-4] , please.
6.34

Recorded pKa of CCCCCCCCCCCCCCN(CCO)CCCCCCCCCCCCCC [Compound 17-7, 2-(Ditetradecylamino)ethan-1-ol] , please.
5.68

Recorded pKa of CCCCCCCCCN(CCO)CCCCCCCCC [Compound 17-10, 2-(Dinonylamino)ethan-1-ol] , please.
2.85

Recorded pKa of CCCCC/C=C\C/C=C\CCCCCCCCN(CCCCCCCC/C=C\C/C=C\CCCCC)CCOC [Compound 17-9] , please.
4.93

Recorded pKa of CCCCCCCCCCCCN(CCCCO)CCCCCCCCCCCC [Compound 17-13, 4-(Didodecylamino)butan-1-ol] , please.
6.89

Recorded pKa of CCCCC/C=C\C/C=C\CCCCCCCCN(CCO)CCCCCC [Compound 17-2] , please.
6.92

Recorded pKa of CCCCC/C=C\C/C=C\CCCCCCCCN(CCO)CCCCCCCCCCCCCC [Compound 17-5] , please.
6.92

Recorded pKa of CCCCC/C=C\C/C=C\CCCCCCCCN(CCO)CCCCCCCCCCCCCCCCCC [Compound 17-6] , please.
6.73

###

System: IL-6
Assay: Cytokine production induced by sample formulations: IL-6
Assay type: in vivo
Conditions: mice, i.v., 0.5 mpk, 6 hours
propertyName: IL-6 induction, rank within the named table (in words)

CCCCCCCCCCCCN(CCCCCCCCCCCC)CCN(CCCCCCCCCCCC)CCN1CCN(C(=O)CN(CCCCCCCCCCCC)CCCCCCCCCCCC)CC1 [Compound 3]	lowest IL-6 expression
CCCCC/C=C\C/C=C\CCCCCCCCN(CCO)CCCCCCCCC [Compound 17-3]	lowest IL-6 levels
CCCCC/C=C\C/C=C\CCCCCCCCN(CCCCCCCC/C=C\C/C=C\CCCCC)CCN1CCNCC1 [Compound 19-3]	lowest IL-6 expression
CCCCCCCCCN(CCO)CCCCCCCCC [Compound 17-10, 2-(Dinonylamino)ethan-1-ol]	lowest IL-6 levels

###

Test: Particle size and polydispersity index of nanoparticle compositions (Zetasizer Nano ZS)
Format: physicochemical
Details: Table 1b
Provide the reported PDI of each item.
Just the number, please.

Recorded PDI of CCCCCCCCCN(CCCCCCCCC)CCN(CCCCCCCCC)CC(=O)N1CCN(C(=O)CN(CCCCCCCCC)CCCCCCC(=O)OCC)CC1 , please.
0.23

Recorded PDI of CCCCCCCCCN(CCCC(=O)OCCCCC)CCC1CCCN(C(=O)CN(CCCCCCCCC)CCN(CCCCCCCCC)CCCCCCCCC)C1 (stereo not drawn) , please.
0.2

Recorded PDI of CCCCCCCCCN(CCCOC(=O)CCCCC)CCC1CCN(C(=O)CN(CCCCCCCCC)CCN(CCCCCCCCC)CCCCCCCCC)CC1 , please.
0.23

Recorded PDI of CCCCCCCCCN(CCCCCCCCC)CCN(CCCCCCCCC)CC(=O)N1CCC(CN(CCCCCCCCC)CCCCCCCCC)C1 (stereo not drawn) , please.
0.24

Recorded PDI of CCCCCCCCCN(CCCCCCCC(=O)OC)CCC1CCN(C(=O)CN(CCCCCCCCC)CCN(CCCCCCCCC)CCCCCCCCC)CC1 , please.
0.23

Recorded PDI of CCCCCCCCCN(CCCCCCCCC)CCCC1CCN(C(=O)CCN(CCCCCCCCC)CCN(CCCCCCCCC)CCCCCCCCC)CC1 , please.
0.24

###

Test: Particle size and polydispersity index of nanoparticle compositions (Zetasizer Nano ZS)
Format: physicochemical
Conditions: Table 5; hEPO mRNA; 40:20:38.5:1.5 Lipid:DOPE:Chol:PEG-DMG
propertyName: Size (nm)
Respond with the bare value in nm.

Recorded Size (nm) of CCCCCCCCCCCCN(CCCCCCCCCCCC)CCN(CCCCCCCCCCCC)CCN1CCN(CCN(CCCCCCCCCCCC(=O)OC)CCCCCCCCCCCC(=O)OC)CC1 , please.
77.4

Recorded Size (nm) of CCCCCCCCCCCCN(CCCCCCCCCCCC)CCN(CCCCCCCCCCCC)CCN1CCN(CCN(CCCCCCCCC)CCCCCCCCC)CC1 , please.
98.5

Recorded Size (nm) of CCCCCCCCCCCCN(CCCCCCCCCCCC)CCN(CCCCCCCCCCCC)CCN1CCN(CCN(CCCCCC(=O)OCCCCC)CCCCCC(=O)OCCCCC)CC1 , please.
76.8

Origin of measurements: patent US10195156B2
